System: SK-OV-3
Protocol notes: NCI tumour cell line growth inhibition, 48 h
Active and inactive are the calls of the source. No stated cut-off is given here; in the data, active = GI50 up to about 1.1 µM and inactive = higher.
Measure name: GI50

Example entries begin here.
| Compound | Study system | GI50 |
| --- | --- | --- |
| COc1ccc(COCC(Cn2ccnc2)OCc2ccc(C(=O)O)cc2)cc1 (configuration not stated) | SK-OV-3 | > 100 µM (inactive) |
| COc1cc(/C=C2\C[C@H]3[C@@H]4CC=C5C=C(N6CCCC6)CC[C@]5(C)[C@H]4CC[C@]3(C)C2=O)cc(OC)c1OC | SK-OV-3 | 6.89 µM (inactive) |
| NC(=O)N/N=C\CC(O)(C(F)(F)Cl)C(F)(F)Cl | SK-OV-3 | > 10 µM (inactive) |
| CC(=O)c1c(C)n(C)c2c1nnc1ccccc12 | SK-OV-3 | 32.8 µM (inactive) |
| CC(C)(C)c1cc(CCC(=O)Nc2ccc(Cl)cc2Cl)nc(N)n1 | SK-OV-3 | > 100 µM (inactive) |
| CC1=CC[C@H](C)C(C)(C)C1/C=C/C(C)=C/CC[C@@]1(CO)[C@H](CCCO)/C(=C(/C)C=O)CC[C@]1(C)O (some centres not stated) | SK-OV-3 | 25.2 µM (inactive) |

Task: GET /values?readout=GI50&item= O=[N+]([O-])c1ccc(NN/N=N/c2ccc(-c3nc4ccccc4[nH]3)cc2)c([N+](=O)[O-])c1
Result: 94.6 µM (inactive)

Task: GET /values?readout=GI50&item= O=C1/C(=C\c2ccccc2)C(NC2CCCCC2)c2ccccc21 (configuration not stated)
Result: 14 µM (inactive)
